# key: entry, value: inhibition in vivo at 10 mg/kg
- Tested on: Mus musculus
- method: Inhibition of estradiol-induced uterine edema in mouse at 10 mg/kg, po
- condition_summary: read-out: Inhibition
The answer is to be given in %; state only the numeric part.

Below: 8 compounds and their reported inhibition in vivo at 10 mg/kg.
[[record]]
smiles_text = "Cn1nc(N)c2c(-c3ccc(NC(=O)Nc4cccc(Cl)c4)cc3)cncc21"
system_tested = "Mus musculus"
readout_label = "inhibition in vivo at 10 mg/kg"
obs_value = 52

[[record]]
smiles_text = "Nc1n[nH]c2nccc(-c3ccc(NC(=O)Nc4ccccc4)cc3)c12"
system_tested = "Mus musculus"
readout_label = "inhibition in vivo at 10 mg/kg"
obs_value = 39

[[record]]
smiles_text = "Cc1cc(NC(=O)Nc2ccc(-c3ccnc4[nH]nc(N)c34)cc2)ccc1F"
system_tested = "Mus musculus"
readout_label = "inhibition in vivo at 10 mg/kg"
obs_value = 108

[[record]]
smiles_text = "Nc1n[nH]c2nccc(-c3ccc(NC(=O)Nc4cccc(Cl)c4)cc3)c12"
system_tested = "Mus musculus"
readout_label = "inhibition in vivo at 10 mg/kg"
obs_value = 23

[[record]]
smiles_text = "Cc1cccc(NC(=O)Nc2ccc(-c3cncc4[nH]nc(N)c34)cc2)c1"
system_tested = "Mus musculus"
readout_label = "inhibition in vivo at 10 mg/kg"
obs_value = 50

[[record]]
smiles_text = "Nc1n[nH]c2cncc(-c3ccc(NC(=O)Nc4cc(C(F)(F)F)ccc4F)cc3)c12"
system_tested = "Mus musculus"
readout_label = "inhibition in vivo at 10 mg/kg"
obs_value = 35

[[record]]
smiles_text = "Cc1ccc(F)c(NC(=O)Nc2ccc(-c3cncc4c3c(N)nn4C)cc2)c1"
system_tested = "Mus musculus"
readout_label = "inhibition in vivo at 10 mg/kg"
obs_value = 72

[[record]]
smiles_text = "Nc1n[nH]c2nccc(-c3ccc(NC(=O)Nc4ccc(F)c(Cl)c4)cc3)c12"
system_tested = "Mus musculus"
readout_label = "inhibition in vivo at 10 mg/kg"
obs_value = 55


Now for a further compound.
Problem: Endpoint output: inhibition in vivo at 10 mg/kg of Cc1ccc(F)c(NC(=O)Nc2ccc(-c3ccnc4[nH]nc(N)c34)cc2)c1 . Value?
Solution: 66
